Target: human D2LR E95^2.65A (Homo sapiens, UniProt P14416, E95A)
Sequence (P14416 whole entry E95A): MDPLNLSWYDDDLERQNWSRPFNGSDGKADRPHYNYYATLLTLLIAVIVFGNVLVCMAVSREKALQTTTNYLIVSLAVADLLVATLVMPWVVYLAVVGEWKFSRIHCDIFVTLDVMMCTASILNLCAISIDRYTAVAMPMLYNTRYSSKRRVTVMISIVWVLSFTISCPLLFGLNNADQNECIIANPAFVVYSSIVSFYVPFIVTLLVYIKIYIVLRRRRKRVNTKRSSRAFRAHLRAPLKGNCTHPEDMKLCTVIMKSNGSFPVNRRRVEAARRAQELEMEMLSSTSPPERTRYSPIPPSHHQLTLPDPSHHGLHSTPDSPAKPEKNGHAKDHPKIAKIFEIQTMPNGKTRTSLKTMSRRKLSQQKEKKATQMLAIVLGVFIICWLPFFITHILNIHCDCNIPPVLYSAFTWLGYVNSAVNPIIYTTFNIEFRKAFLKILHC
Assay: ERK1/2 phosphorylation, E95^2.65A
Format: cell-based
test.readout: pKB Function (pERK1/2)

compound: O=C(N[C@H]1CC[C@H](CCN2CCc3ccc(Br)cc3C2)CC1)c1cc2ccccc2[nH]1 [MIPS1556]
result: 5.96 ± 0.12

compound: N#Cc1ccc2c(c1)CN(CCC1CCC(NC(=O)c3nc4ccccc4o3)CC1)CC2 (centres unmarked) [MIPS1528]
result: 5.92 ± 0.07

compound: O=C(N[C@H]1CC[C@H](CCN2CCc3ccccc3C2)CC1)c1cc2ccccc2[nH]1 [MIPS1278]
result: 4.21 ± 0.15

compound: N#Cc1ccc2c(c1)CN(CCC1CCC(NC(=O)c3ccc[nH]3)CC1)CC2 (centres unmarked) [MIPS1576]
result: 7.02 ± 0.15

compound: N#Cc1ccc2c(c1)CN(CCC1CCC(NC(=O)c3cc4cccnc4[nH]3)CC1)CC2 (centres unmarked) [MIPS1588]
result: 5.90 ± 0.20
